Values compiled from paper PMC11879280.

# Tested on: horse red blood cells (RBCs)
# ASSAY_SUMMARY: Haemolysis assay
# Format: cell-based
# TEST_SETTINGS: red cells of horse, 4 h
Square brackets hold non-standard residues; d marks the D form. Peptide text beside a SMILES is read from it. Nspe(4-Br) = C[C@H](NCC(=O)O)c1ccc(Br)cc1; Nspe = C[C@H](NCC(=O)O)c1ccccc1; NDecylGly = CCCCCCCCCCNCC(=O)O; Nlys = NCCCCNCC(=O)O
READOUT_KIND: HD10 (10% haemolytic dose) (µg/mL)
Provide only the numeric value, understood in µg/mL.

Query block: Would you mind telling me what HD10 (10% haemolytic dose) value was observed for C[C@@H](c1ccccc1)N(CC(N)=O)C(=O)CN(C(=O)CN(CCCCN)C(=O)CN(C(=O)CN(C(=O)CN(CCCCN)C(=O)CN(C(=O)CN(C(=O)CN(CCCCN)C(=O)CN(C(=O)CN(C(=O)CNCCCCN)[C@@H](C)c1ccccc1)[C@@H](C)c1ccccc1)[C@@H](C)c1ccccc1)[C@@H](C)c1ccccc1)[C@@H](C)c1ccccc1)[C@@H](C)c1ccccc1)[C@@H](C)c1ccccc1 [TM1] (H-[Nlys][Nspe][Nspe][Nlys][Nspe][Nspe][Nlys][Nspe][Nspe][Nlys][Nspe][Nspe]-NH2) ?
Result block: 8

Query block: Now give it for CCCCCCCCCCNCC(=O)N(CCCCN)CC(=O)N(CC(=O)N(CC(=O)N(CCCCN)CC(=O)N(CC(=O)N(CC(N)=O)[C@@H](C)c1ccccc1)[C@@H](C)c1ccccc1)[C@@H](C)c1ccccc1)[C@@H](C)c1ccccc1 [TM8] (H-[NDecylGly][Nlys][Nspe][Nspe][Nlys][Nspe][Nspe]-NH2) too.
Result block: 8

Query block: Now the compound C[C@@H](c1ccc(Br)cc1)N(CC(N)=O)C(=O)CN(C(=O)CN(CCCCN)C(=O)CN(C(=O)CN(C(=O)CNCCCCN)[C@@H](C)c1ccccc1)[C@@H](C)c1ccc(Br)cc1)[C@@H](C)c1ccccc1 [TM2] (H-[Nlys][Nspe][Nspe(4-Br)][Nlys][Nspe][Nspe(4-Br)]-NH2)
Result block: 20
